# Test system: SMMC-7721 liver cancer cells
# Method description: Antiproliferative activity, in vitro growth inhibition assay (MTS/WST), SMMC-7721
# Assay type: cell-based
# Reported conditions: Homo sapiens, 72 hours, concentration required for 90% growth inhibition, read-out: GI90 (micromolar) SMMC-7721
Measured quantity: IC90 (µM)

[[record]]
compound = "Nc1ccccc1NC(=O)/C=C/c1ccc(C(CCCN2CCCC(O)C2)C(=O)Nc2ccc(Br)cc2)cc1 (stereo not shown)"
reported = 3.2

[[record]]
compound = "Nc1ccccc1NC(=O)/C=C/c1ccc(C(CCCN2CCOCC2)C(=O)Nc2ccc(Br)cc2)cc1 (stereo not shown)"
reported = 2.9

[[record]]
compound = "Nc1ccccc1NC(=O)/C=C/c1ccc(C(CCCN2C[C@@H]3C[C@H]2CO3)C(=O)Nc2ccc(Br)cc2)cc1 (stereo partly shown)"
reported = 1.5

[[record]]
compound = "CCN(CC)C1CCN(CC(C(=O)Nc2ccc(Cl)cc2)c2ccc(/C=C/C(=O)Nc3ccccc3N)cc2)C1 (stereo not shown)"
reported = 3.3

[[record]]
compound = "CC(C)c1ccc(NC(=O)C(CCCN2C[C@@H]3C[C@H]2CO3)c2ccc(/C=C/C(=O)Nc3ccccc3N)cc2)cc1 (stereo partly shown)"
reported = 4.9

[[record]]
compound = "CN1CCCC1CCC(C(=O)Nc1ccc(Br)cc1)c1ccc(/C=C/C(=O)Nc2ccccc2N)cc1 (stereo not shown)"
reported = 2.5

[[record]]
compound = "Nc1ccccc1NC(=O)/C=C/c1ccc(C(CCCN2CCCCC2)C(=O)Nc2ccc(Br)cc2)cc1 (stereo not shown)"
reported = 2.1

[[record]]
compound = "Nc1ccccc1NC(=O)/C=C/c1ccc(C(CCN2CCOCC2)C(=O)Nc2ccc(Br)cc2)cc1 (stereo not shown)"
reported = 3.1

[[record]]
compound = "Nc1ccccc1NC(=O)c1ccc(CNC(=O)OCc2cccnc2)cc1 [SNDX-275, reference compound]"
reported = 10.5

[[record]]
compound = "Nc1ccccc1NC(=O)/C=C/c1ccc(C(CCN2C[C@@H]3C[C@H]2CO3)C(=O)Nc2ccc(Br)cc2)cc1 (stereo partly shown)"
reported = 2.7


----------
# System: SMMC-7721 liver cancer cells
# Method description: Antiproliferative activity, in vitro growth inhibition assay (MTS/WST), SMMC-7721
# Format: cell-based
# Reported conditions: Homo sapiens, 72 hours, read-out: GI50 (micromolar) SMMC-7721
Measured quantity: GI50 (µM)

[[record]]
compound = "Nc1ccccc1NC(=O)/C=C/c1ccc(C(CCCN2CCCCC2)C(=O)Nc2ccc(Br)cc2)cc1 (stereo not shown) [Example 9-3]"
unit = "µM"
reported = 0.8

[[record]]
compound = "CN1CCCC1CCC(C(=O)Nc1ccc(Br)cc1)c1ccc(/C=C/C(=O)Nc2ccccc2N)cc1 (stereo not shown) [Example 25]"
unit = "µM"
reported = 0.8

[[record]]
compound = "CC(C)c1ccc(NC(=O)C(CCCN2C[C@@H]3C[C@H]2CO3)c2ccc(/C=C/C(=O)Nc3ccccc3N)cc2)cc1 (stereo partly shown) [Example 9-4]"
unit = "µM"
reported = 1.4

[[record]]
compound = "CCN(CC)C1CCN(CC(C(=O)Nc2ccc(Cl)cc2)c2ccc(/C=C/C(=O)Nc3ccccc3N)cc2)C1 (stereo not shown) [Example 31]"
unit = "µM"
reported = 0.9

[[record]]
compound = "Nc1ccccc1NC(=O)c1ccc(CNC(=O)OCc2cccnc2)cc1 [SNDX-275, reference compound]"
unit = "µM"
reported = 3.5

[[record]]
compound = "Nc1ccccc1NC(=O)/C=C/c1ccc(C(CCCN2CCOCC2)C(=O)Nc2ccc(Br)cc2)cc1 (stereo not shown) [Example 9]"
unit = "µM"
reported = 1.3

[[record]]
compound = "Nc1ccccc1NC(=O)/C=C/c1ccc(C(CCCN2CCCC(O)C2)C(=O)Nc2ccc(Br)cc2)cc1 (stereo not shown) [Example 9-5]"
unit = "µM"
reported = 1.1

[[record]]
compound = "Nc1ccccc1NC(=O)/C=C/c1ccc(C(CCCN2C[C@@H]3C[C@H]2CO3)C(=O)Nc2ccc(Br)cc2)cc1 (stereo partly shown) [Example 9-2]"
unit = "µM"
reported = 0.7

[[record]]
compound = "Nc1ccccc1NC(=O)/C=C/c1ccc(C(CCN2CCOCC2)C(=O)Nc2ccc(Br)cc2)cc1 (stereo not shown) [Example 6-2]"
unit = "µM"
reported = 1

[[record]]
compound = "Nc1ccccc1NC(=O)/C=C/c1ccc(C(CCN2C[C@@H]3C[C@H]2CO3)C(=O)Nc2ccc(Br)cc2)cc1 (stereo partly shown) [Example 6]"
unit = "µM"
reported = 0.8


----------
# Test system: p21 promoter-luciferase construct in HeLa cells
# Method description: p21 reporter gene induction assay, HeLa cells transfected with p21 promoter-luciferase construct
# Assay type: cell-based
# Reported conditions: compound at 3 micromolar; 15 hours incubation; relative to SNDX-275 (=100%)
Label YES for high-side p21 (RP3): relative induction potency compared with SNDX-275 (at or above 200%) and NO for low-side p21 (RP3): relative induction potency compared with SNDX-275 (below it).

[[record]]
molecule = "Nc1ccccc1NC(=O)/C=C/c1ccc(C(CCN2CCOCC2)C(=O)Nc2ccc(Br)cc2)cc1 (stereo not shown) [Example 6-2]"
cat = "YES"

[[record]]
molecule = "Nc1ccccc1NC(=O)/C=C/c1ccc(C(CCCN2C[C@@H]3C[C@H]2CO3)C(=O)Nc2ccc(Br)cc2)cc1 (stereo partly shown) [Example 9-2]"
cat = "NO"

[[record]]
molecule = "Nc1ccccc1NC(=O)/C=C/c1ccc(C(CCCN2CCOCC2)C(=O)Nc2ccc(Br)cc2)cc1 (stereo not shown) [Example 9]"
cat = "YES"

[[record]]
molecule = "Nc1ccccc1NC(=O)/C=C/c1ccc(C(CCCN2CCCCC2)C(=O)Nc2ccc(Br)cc2)cc1 (stereo not shown) [Example 9-3]"
cat = "YES"

[[record]]
molecule = "Nc1ccccc1NC(=O)c1ccc(CNC(=O)OCc2cccnc2)cc1 [SNDX-275, reference compound]"
cat = "NO"

[[record]]
molecule = "CCN(CC)C1CCN(CC(C(=O)Nc2ccc(Cl)cc2)c2ccc(/C=C/C(=O)Nc3ccccc3N)cc2)C1 (stereo not shown) [Example 31]"
cat = "YES"

[[record]]
molecule = "CC(C)c1ccc(NC(=O)C(CCCN2C[C@@H]3C[C@H]2CO3)c2ccc(/C=C/C(=O)Nc3ccccc3N)cc2)cc1 (stereo partly shown) [Example 9-4]"
cat = "NO"

[[record]]
molecule = "Nc1ccccc1NC(=O)/C=C/c1ccc(C(CCN2C[C@@H]3C[C@H]2CO3)C(=O)Nc2ccc(Br)cc2)cc1 (stereo partly shown) [Example 6]"
cat = "YES"

[[record]]
molecule = "Nc1ccccc1NC(=O)/C=C/c1ccc(C(CCCN2CCCC(O)C2)C(=O)Nc2ccc(Br)cc2)cc1 (stereo not shown) [Example 9-5]"
cat = "NO"

